- Subject Of Test: D5 (Homo sapiens, UniProt P21918)
- Sequence (P21918 whole entry): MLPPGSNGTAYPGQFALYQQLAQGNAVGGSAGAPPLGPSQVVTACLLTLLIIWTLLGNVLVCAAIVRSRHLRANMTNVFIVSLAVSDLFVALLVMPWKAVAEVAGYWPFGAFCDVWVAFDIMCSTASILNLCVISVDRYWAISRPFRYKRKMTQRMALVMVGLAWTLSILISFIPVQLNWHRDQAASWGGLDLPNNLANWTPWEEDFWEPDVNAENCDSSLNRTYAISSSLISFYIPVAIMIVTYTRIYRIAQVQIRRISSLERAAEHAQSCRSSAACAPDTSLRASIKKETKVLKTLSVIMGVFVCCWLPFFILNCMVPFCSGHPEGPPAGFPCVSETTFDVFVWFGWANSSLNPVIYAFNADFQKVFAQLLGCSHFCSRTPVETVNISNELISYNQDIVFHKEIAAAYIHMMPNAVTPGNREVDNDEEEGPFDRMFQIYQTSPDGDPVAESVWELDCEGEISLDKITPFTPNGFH
- Measurement Protocol: D5 cAMP assay
- Assay Conditions: fold change of dopamine EC50, 50 μM compound
Catalogue of D5 cAMP: DA + 50 μM PAM, Fold Change EC50 readings, one per entry.
Reported Metric: D5 cAMP: DA + 50 μM PAM, Fold Change EC50

Molecule | Recorded Result
CC1CCc2c(sc(NC(=O)c3ccc4ccccc4n3)c2C(N)=O)C1 (stereo not drawn) | 0.45
Cn1c2ccccc2c(=O)c2c(=O)n(-c3ccccc3)c(CC3CCCCC3)nc21 | 1.30
Cn1c2ccccc2c(=O)c2c(=O)n(-c3ccccc3)c(C3CC3)nc21 | 0.57
Cc1ccc(-n2c(CC(C)C)nc3c(c(=O)c4ccccc4n3C)c2=O)cc1 | 2.23
CC1CCc2c(sc(NC(=O)c3ccccn3)c2C(N)=O)C1 (stereo not drawn) | 1.64
CC1CCc2c(sc(NC(=O)c3cccnc3)c2C(N)=O)C1 (stereo not drawn) | 0.76
Cn1c2ccccc2c(=O)c2c(=O)n(-c3cccc(Cl)c3)c(CC3CCCCC3)nc21 [Compound 22] | 0.73
Cn1c2ccccc2c(=O)c2c(=O)n(-c3ccc(Cl)cc3)c(CC3CCCCC3)nc21 | 1.43
COc1ccc(-n2c(CC3CCCCC3)nc3c(c(=O)c4ccccc4n3C)c2=O)cc1 | 0.67

###

- Subject Of Test: D5 (Homo sapiens)
- Measurement Protocol: D5 cAMP assay
- Assay Conditions: fold change of dopamine EC50, 50 μM compound
Catalogue of D5 cAMP: DA + 50 μM PAM, Fold Change EC50 readings, one per entry.
Reported Metric: D5 cAMP: DA + 50 μM PAM, Fold Change EC50

Compound | Subject Of Test | Recorded Result
CC1CCc2c(sc(NC(=O)c3ccncc3)c2C(N)=O)C1 (stereo not drawn) | D5 (Homo sapiens) | 1.57
CN1CCc2c(sc(NC(=O)c3ccncc3)c2C#N)C1 | D5 (Homo sapiens) | 1.45
CC(C)Cc1nc2c(c(=O)c3ccccc3n2C)c(=O)n1-c1ccccc1 | D5 (Homo sapiens) | 2.22
Cn1c2ccccc2c(=O)c2c(=O)n(-c3cccc(Cl)c3)c(CC3CCCCC3)nc21 [Compound 18] | D5 (Homo sapiens) | 0.34
CC(C)(C)C1CCc2c(sc(NC(=O)c3ccncc3)c2C(N)=O)C1 (stereo not drawn) | D5 (Homo sapiens) | 1.63
NC(=O)c1c(NC(=O)c2ccccn2)sc2c1CCCC2 | D5 (Homo sapiens) | 0.86
CC(C)(C)C1CCc2c(sc(NC(=O)c3cncc(Br)c3)c2C(N)=O)C1 (stereo not drawn) | D5 (Homo sapiens) | 0.66
CC(C)(C)C1CCc2c(sc(NC(=O)c3ccc4ccccc4n3)c2C(N)=O)C1 (stereo not drawn) | D5 (Homo sapiens) | 1.25
Cn1c2ccccc2c(=O)c2c(=O)n(-c3ccccc3)c(C3CCCCC3)nc21 | D5 (Homo sapiens) | 2.14
CC(C)(C)C1CCc2c(sc(NC(=O)c3ccccn3)c2C(N)=O)C1 (stereo not drawn) | D5 (Homo sapiens) | 0.60
COc1ccc(-n2c(CC3CCCCC3)nc3c(c(=O)c4ccccc4n3C)c2=O)cc1Cl | D5 (Homo sapiens) | 1.04
Cn1c2ccccc2c(=O)c2c(=O)n(-c3ccccc3)c(C3CCCC3)nc21 | D5 (Homo sapiens) | 1.26

Where do these numbers come from? They come from patent US20210040074A1.
